- system_name: T1, human MSLN-FL-his protein (human, UniProt Q13421 296-580)
- T1 construct: made in HEK293E cells, purified on nickel column; also called hMSLN-FL-his; human MSLN full-length protein; not shown: His tag
- assay: SPR (Biacore), antibody captured on Protein A chip;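 note: flow cell at 25 °C, antigen injected for 240 s at five concentrations from 200 nM downward, dissociation followed up to 600 s, double-referenced, fitted with Langmuir 1:1 model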
Listing of entries alongside the reported kon.
Kindly answer with a numeric value in M⁻¹ s⁻¹, unit omitted.

{"columns": ["binder", "output_unit", "kon"],
 "data": [
  ["S009-F8-27.1 (antibody, human IgG1, kappa, V domains shown, human-murine chimeric antibody, human IgG1/kappa constant regions) VH: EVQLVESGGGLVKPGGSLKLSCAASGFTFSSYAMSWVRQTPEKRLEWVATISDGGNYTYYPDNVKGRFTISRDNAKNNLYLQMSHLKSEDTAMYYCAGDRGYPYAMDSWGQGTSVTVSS VL: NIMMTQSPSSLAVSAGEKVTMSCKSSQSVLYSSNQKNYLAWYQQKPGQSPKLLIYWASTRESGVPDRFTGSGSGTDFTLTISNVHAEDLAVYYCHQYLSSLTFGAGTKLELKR", "M⁻¹ s⁻¹", 120000],
  ["S009-F7.12.13 (antibody, human IgG1, kappa, V domains shown, human-murine chimeric antibody, human IgG1/kappa constant regions) VH: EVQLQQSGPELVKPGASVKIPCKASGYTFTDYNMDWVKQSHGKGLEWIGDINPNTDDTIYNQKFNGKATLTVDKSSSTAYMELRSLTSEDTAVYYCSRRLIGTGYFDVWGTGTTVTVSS VL: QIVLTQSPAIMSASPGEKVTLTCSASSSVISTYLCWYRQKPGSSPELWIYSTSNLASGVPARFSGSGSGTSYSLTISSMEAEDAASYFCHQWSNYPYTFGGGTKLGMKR", "M⁻¹ s⁻¹", 220000]
]}

Now for a further binder.
Indicate the recorded kon value for this binder: S009-F7.65.13 (antibody, human IgG1, kappa, V domains shown, human-murine chimeric antibody, human IgG1/kappa constant regions) VH: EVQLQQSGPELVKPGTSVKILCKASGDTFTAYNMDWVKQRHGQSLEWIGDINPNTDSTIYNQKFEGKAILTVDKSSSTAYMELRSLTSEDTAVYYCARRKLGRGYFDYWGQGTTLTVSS VL: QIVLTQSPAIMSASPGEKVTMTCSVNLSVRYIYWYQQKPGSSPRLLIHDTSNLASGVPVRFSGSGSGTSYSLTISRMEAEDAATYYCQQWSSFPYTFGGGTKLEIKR
374000
